Numbers sourced from ChEMBL document CHEMBL4270630.

tested on: Human coronavirus 229E; assay: Antiviral activity against Human coronavirus 229E infected in human A549 cells assessed as reduction in virus RNA level after 3 days by qRT-PCR method; type: functional; conditions: A549, 72 h
Kindly supply the reported EC99 values for the records listed here.
Answer in µM, number only, no unit symbol.

Consider the molecule CCCCCCSC1=C(SCCCCCC)C(=O)N(CCOCCOCCOCCOCc2cn(C3C(=O)N[C@@H]4Cc5ccc(c(Cl)c5)Oc5cc6cc(c5O)Oc5ccc(cc5Cl)[C@@H](O[C@@H]5O[C@H](CO)[C@@H](O)[C@H](O)[C@H]5NC(C)=O)[C@H]5NC(=O)[C@H](NC(O)[C@@H]6NC(=O)[C@@H](NC4=O)c4cc(O)cc(c4)Oc4cc3ccc4O)c3ccc(O)c(c3)-c3c(O)cc(O)cc3[C@H](C(=O)O)NC5=O)nn2)C1=O (stereo partly drawn) and give its measured EC99.
21

For CC(=O)N[C@H]1[C@H](O[C@@H]2c3ccc(c(Cl)c3)Oc3cc4cc(c3O)Oc3ccc(cc3Cl)C[C@H]3NC(=O)[C@H](NS(=O)(=O)c5ccccc5)c5ccc(O)c(c5)Oc5cc(O)cc(c5)[C@H](NC3=O)C(=O)N[C@H]4C(O)N[C@H]3C(=O)N[C@H]2C(=O)N[C@@H](C(=O)O)c2cc(O)cc(O)c2-c2cc3ccc2O)O[C@H](CO)[C@@H](O)[C@@H]1O (stereo partly drawn) then?
11

For CC(=O)N[C@H]1[C@H](O[C@@H]2c3ccc(c(Cl)c3)Oc3cc4cc(c3O)Oc3ccc(cc3Cl)C[C@H]3NC(=O)[C@H](NS(=O)(=O)c5ccc(C)cc5)c5ccc(O)c(c5)Oc5cc(O)cc(c5)[C@H](NC3=O)C(=O)N[C@H]4C(O)N[C@H]3C(=O)N[C@H]2C(=O)N[C@@H](C(=O)O)c2cc(O)cc(O)c2-c2cc3ccc2O)O[C@H](CO)[C@@H](O)[C@@H]1O (stereo partly drawn) then?
10
